Would you mind telling me the reported CRF1R EC50 of each entry?
molecular target: corticotropin releasing factor 1 receptor; experiment: cell-based or functional assay
Ends that are not written are not given here.
Answer with a number only, understood to be in nM.

Challenge: Return reported CRF1R EC50. Input binder: DNPSLSIDLPLILLRTLLELARTQSQRERAEQNARIFARV-NH2 [SEQ ID NO 330]
Response given: 1000

Challenge: Return reported CRF1R EC50. Input binder: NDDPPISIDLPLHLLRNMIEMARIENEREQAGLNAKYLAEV-NH2 [SEQ ID NO 259]
Response given: 820

Challenge: Return reported CRF1R EC50. Input binder: DNPSLSIDLPLILLRTLLELEKTQSQRERAEQNAIIFASV-NH2 [SEQ ID NO 345]
Response given: 1000

Challenge: Return reported CRF1R EC50. Input binder: ZGPPISIDLPFQLLRKVIEIEKQEKEKQQAANNALLLATI (C-terminal amide) [SEQ ID NO 352]
Response given: 780

Challenge: Return reported CRF1R EC50. Input binder: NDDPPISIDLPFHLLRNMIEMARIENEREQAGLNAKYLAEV-NH2 [SEQ ID NO 262]
Response given: 408

Challenge: Return reported CRF1R EC50. Input binder: DNPSLSIDLPLLLLRTLLELEKTQSQRERAEQNARIFDRV-NH2 [SEQ ID NO 338]
Response given: 1000

Challenge: Return reported CRF1R EC50. Input binder: ZGPPISIDVPLQLLRKVIEIEKQEKEKQQAANNARLLARI (C-terminal amide) [SEQ ID NO 381]
Response given: 1000

Challenge: Return reported CRF1R EC50. Input binder: ZGPPISIDLPAALLRKMIEIEKQEKEKQQAANNRLLLDTI (not fully specified; C-terminal amide) [SEQ ID NO 303]
Response given: 582

Challenge: Return reported CRF1R EC50. Input binder: DNPSLSIDLPLLLLRTLLELEKTQSQRERAEQNAEIFAEV-NH2 [SEQ ID NO 323]
Response given: 1000

Challenge: Return reported CRF1R EC50. Input binder: DNPSLSIDLPLLLLRTLLELARTQSQRERAEQNARIFARV-NH2 [SEQ ID NO 340]
Response given: 740

Challenge: Return reported CRF1R EC50. Input binder: ZGPPISIDLPTYLLRKMIEIEKQEKEKQQAANNALLLDTI (C-terminal amide) [SEQ ID NO 232]
Response given: 1000

Challenge: Return reported CRF1R EC50. Input binder: ZGPPISIDLPFQLLRKTIEIEKQEKEKQQATTNARLLDRV (C-terminal amide) [SEQ ID NO 321]
Response given: 1000
